test system: Staphylococcus aureus; assay: Antibacterial activity against methicillin-resistant Staphylococcus aureus ATCC 700699 after 24 hrs by NCCLS M7-A6 broth dilution method; type: functional; details: ATCC 700699, 24 h
hey, just use t if measured MIC is less than 6 µg/mL, otherwise f

[
  {
    "molecule": "Cc1oc(-c2ccccc2)nc1CCCc1nc2cc(C[C@H](Oc3ccc(F)cc3)C(=O)O)ccc2o1",
    "study_system": "Staphylococcus aureus",
    "assigned_class": "f"
  },
  {
    "molecule": "CC1(C)S[C@@H]2[C@H](NC(=O)Cc3ccccc3)C(=O)N2[C@H]1C(=O)[O-].[Na+] [PENICILLIN G SODIUM]",
    "study_system": "Staphylococcus aureus",
    "assigned_class": "t"
  },
  {
    "molecule": "Cc1oc(-c2ccccc2)nc1CCCc1nc2cc(C[C@H](Oc3cccc4ncccc34)C(=O)O)ccc2o1",
    "study_system": "Staphylococcus aureus",
    "assigned_class": "f"
  },
  {
    "molecule": "Cc1ccc(O[C@@H](Cc2ccc3oc(CCCc4nc(-c5ccccc5)oc4C)nc3c2)C(=O)O)cc1",
    "study_system": "Staphylococcus aureus",
    "assigned_class": "f"
  },
  {
    "molecule": "Cc1oc(-c2ccccc2)nc1CCCc1nc2cc(C[C@H](Oc3ccc(I)cc3)C(=O)O)ccc2o1",
    "study_system": "Staphylococcus aureus",
    "assigned_class": "t"
  },
  {
    "molecule": "Cc1oc(-c2ccccc2)nc1CCCc1nc2cc(C[C@H](OC(C)C)C(=O)O)ccc2o1",
    "study_system": "Staphylococcus aureus",
    "assigned_class": "f"
  },
  {
    "molecule": "CC1=C(C(=O)O)N2C(=O)[C@@H](NC(=O)[C@H](N)C3=CCC=CC3)[C@H]2SC1",
    "study_system": "Staphylococcus aureus",
    "assigned_class": "f"
  },
  {
    "molecule": "Cc1oc(-c2ccccc2)nc1CCCc1nc2cc(C[C@@H](Oc3ccc(OCc4ccccc4)cc3)C(=O)O)ccc2o1",
    "study_system": "Staphylococcus aureus",
    "assigned_class": "f"
  },
  {
    "molecule": "CC(=O)c1ccc(O[C@@H](Cc2ccc3oc(CCCc4nc(-c5ccccc5)oc4C)nc3c2)C(=O)O)cc1",
    "study_system": "Staphylococcus aureus",
    "assigned_class": "f"
  },
  {
    "molecule": "COC(=O)[C@H](Cc1ccc2oc(CCCc3nc(-c4ccccc4)oc3C)nc2c1)Oc1ccc(-c2ccccc2)cc1",
    "study_system": "Staphylococcus aureus",
    "assigned_class": "f"
  },
  {
    "molecule": "CO[C@@H](Cc1ccc2oc(CCCc3nc(-c4ccccc4)oc3C)nc2c1)C(=O)O",
    "study_system": "Staphylococcus aureus",
    "assigned_class": "f"
  },
  {
    "molecule": "Cc1oc(-c2ccccc2)nc1CCCc1nc2cc(C[C@H](Oc3ccc(-c4ccccc4)cc3)C(=O)O)ccc2o1",
    "study_system": "Staphylococcus aureus",
    "assigned_class": "t"
  },
  {
    "molecule": "Cc1oc(-c2ccccc2)nc1CCCc1nc2cc(C[C@H](Oc3ccc(C#N)cc3)C(=O)O)ccc2o1",
    "study_system": "Staphylococcus aureus",
    "assigned_class": "f"
  },
  {
    "molecule": "Cc1oc(-c2ccccc2)nc1CCCc1nc2cc(C[C@H](Oc3cccc(I)c3)C(=O)O)ccc2o1",
    "study_system": "Staphylococcus aureus",
    "assigned_class": "t"
  },
  {
    "molecule": "Cc1oc(-c2ccccc2)nc1CCCc1nc2cc(C[C@H](Oc3cccc(F)c3)C(=O)O)ccc2o1",
    "study_system": "Staphylococcus aureus",
    "assigned_class": "f"
  },
  {
    "molecule": "Cc1oc(-c2ccccc2)nc1CCCc1nc2cc(C[C@@H](Oc3ccc(-c4ccccc4)cc3)C(=O)O)ccc2o1",
    "study_system": "Staphylococcus aureus",
    "assigned_class": "f"
  },
  {
    "molecule": "Cc1oc(-c2ccccc2)nc1CCCc1nc2cc(C[C@H](Oc3cccnc3)C(=O)O)ccc2o1",
    "study_system": "Staphylococcus aureus",
    "assigned_class": "f"
  },
  {
    "molecule": "CC(C)(O/N=C(\\C(=O)N[C@@H]1C(=O)N2C(C(=O)[O-])=C(C[n+]3ccccc3)CS[C@H]12)c1csc(N)n1)C(=O)O",
    "study_system": "Staphylococcus aureus",
    "assigned_class": "f"
  },
  {
    "molecule": "Cc1oc(-c2ccccc2)nc1CCCc1nc2cc(C[C@H](Oc3ccccc3Br)C(=O)O)ccc2o1",
    "study_system": "Staphylococcus aureus",
    "assigned_class": "f"
  },
  {
    "molecule": "Cc1oc(-c2ccccc2)nc1CCCc1nc2cc(C[C@H](Oc3ccc(Cl)cc3Cl)C(=O)O)ccc2o1",
    "study_system": "Staphylococcus aureus",
    "assigned_class": "t"
  },
  {
    "molecule": "COc1ccc(O[C@@H](Cc2ccc3oc(CCCc4nc(-c5ccccc5)oc4C)nc3c2)C(=O)O)cc1",
    "study_system": "Staphylococcus aureus",
    "assigned_class": "f"
  },
  {
    "molecule": "Cc1oc(-c2ccccc2)nc1CCCc1nc2cc(C[C@H](Oc3ccc(OCc4ccccc4)cc3)C(=O)O)ccc2o1",
    "study_system": "Staphylococcus aureus",
    "assigned_class": "t"
  },
  {
    "molecule": "Cc1oc(-c2ccccc2)nc1CCCc1nc2cc(C[C@H](Oc3ccc(Br)cc3)C(=O)O)ccc2o1",
    "study_system": "Staphylococcus aureus",
    "assigned_class": "t"
  },
  {
    "molecule": "Cc1oc(-c2ccccc2)nc1CCCc1nc2cc(C[C@H](Oc3cc(F)c(F)c(F)c3)C(=O)O)ccc2o1",
    "study_system": "Staphylococcus aureus",
    "assigned_class": "f"
  },
  {
    "molecule": "Cc1oc(-c2ccccc2)nc1CCCc1nc2cc(C[C@@H](Oc3ccc(C(C)(C)C)cc3)C(=O)O)ccc2o1",
    "study_system": "Staphylococcus aureus",
    "assigned_class": "f"
  },
  {
    "molecule": "Cc1oc(-c2ccccc2)nc1CCCc1nc2cc(C[C@H](Oc3ccc(Cl)cc3)C(=O)O)ccc2o1",
    "study_system": "Staphylococcus aureus",
    "assigned_class": "f"
  },
  {
    "molecule": "Cc1oc(-c2ccccc2)nc1CCCc1nc2cc(C[C@H](Oc3ccc(C(F)(F)F)cc3)C(=O)O)ccc2o1",
    "study_system": "Staphylococcus aureus",
    "assigned_class": "t"
  },
  {
    "molecule": "Cc1oc(-c2ccccc2)nc1CCCc1nc2cc(C[C@H](Oc3ccc(C(C)(C)C)cc3)C(=O)O)ccc2o1",
    "study_system": "Staphylococcus aureus",
    "assigned_class": "t"
  },
  {
    "molecule": "Cc1oc(-c2ccccc2)nc1CCCc1nc2cc(C[C@@H](Oc3ccc(C(F)(F)F)cc3)C(=O)O)ccc2o1",
    "study_system": "Staphylococcus aureus",
    "assigned_class": "f"
  },
  {
    "molecule": "CO/N=C(\\C(=O)N[C@@H]1C(=O)N2C(C(=O)O)=C(COC(C)=O)CS[C@H]12)c1csc(N)n1",
    "study_system": "Staphylococcus aureus",
    "assigned_class": "t"
  },
  {
    "molecule": "Cc1oc(-c2ccccc2)nc1CCCc1nc2cc(C[C@H](Oc3ccccc3)C(=O)O)ccc2o1",
    "study_system": "Staphylococcus aureus",
    "assigned_class": "f"
  }
]

====

tested on: Escherichia coli; assay: Antibacterial activity against Escherichia coli ATCC 11303 after 24 hrs by NCCLS M7-A6 broth dilution method; format: functional; details: ATCC 11303, 24 h
hey, just use TRUE if measured MIC is less than 50 µg/mL, otherwise FALSE

[
  {
    "chemical_string": "Cc1oc(-c2ccccc2)nc1CCCc1nc2cc(C[C@H](Oc3ccc(-c4ccccc4)cc3)C(=O)O)ccc2o1",
    "assigned_class": "TRUE"
  },
  {
    "chemical_string": "Cc1oc(-c2ccccc2)nc1CCCc1nc2cc(C[C@H](Oc3cccc(I)c3)C(=O)O)ccc2o1",
    "assigned_class": "TRUE"
  },
  {
    "chemical_string": "Cc1oc(-c2ccccc2)nc1CCCc1nc2cc(C[C@H](Oc3ccc(C(F)(F)F)cc3)C(=O)O)ccc2o1",
    "assigned_class": "TRUE"
  },
  {
    "chemical_string": "Cc1oc(-c2ccccc2)nc1CCCc1nc2cc(C[C@@H](Oc3ccc(OCc4ccccc4)cc3)C(=O)O)ccc2o1",
    "assigned_class": "TRUE"
  },
  {
    "chemical_string": "Cc1oc(-c2ccccc2)nc1CCCc1nc2cc(C[C@H](Oc3cccc4ncccc34)C(=O)O)ccc2o1",
    "assigned_class": "FALSE"
  },
  {
    "chemical_string": "Cc1oc(-c2ccccc2)nc1CCCc1nc2cc(C[C@H](Oc3cc(F)c(F)c(F)c3)C(=O)O)ccc2o1",
    "assigned_class": "TRUE"
  }
]

The measured values listed here are drawn from ChEMBL document CHEMBL1817558.
